Reported IC50 by item:
- measured on: cathepsin S (Homo sapiens, UniProt P25774)
- Sequence (P25774 115-331, species assumed): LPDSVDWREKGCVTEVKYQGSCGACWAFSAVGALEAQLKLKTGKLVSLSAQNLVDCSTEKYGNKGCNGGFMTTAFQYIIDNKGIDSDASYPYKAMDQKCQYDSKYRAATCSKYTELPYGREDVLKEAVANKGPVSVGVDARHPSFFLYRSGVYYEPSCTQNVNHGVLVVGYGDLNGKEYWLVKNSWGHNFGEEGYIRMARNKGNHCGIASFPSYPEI
- assay procedure: Inhibitory activity assay against cathepsin S (enzyme assay)
- Format: biochemical
- measurement conditions: Z-Phe-Arg-AMC 70 μM, enzyme 3 nM, pH 6.5, 45 minutes
measured parameter: IC50

substance_smiles=Cc1ccc(F)c(NC(=O)NC2(c3ccnc(C#N)n3)CCCCC2)c1 measured_on="cathepsin S (Homo sapiens, UniProt P25774)" experimental_result="8240 nM"
substance_smiles=N#Cc1nccc(C2(NC(=O)Nc3ccc(Br)c(C(F)(F)F)c3)CCCCC2)n1 measured_on="cathepsin S (Homo sapiens, UniProt P25774)" experimental_result="> 10000 nM"
substance_smiles=N#Cc1nccc(C2(NC(=O)OCc3cccc(Br)c3)CCCCC2)n1 measured_on="cathepsin S (Homo sapiens, UniProt P25774)" experimental_result="> 10000 nM"
substance_smiles=N#Cc1nccc(C2(NC(=O)Nc3ccc(-c4cccc(F)c4)cc3)CCCCC2)n1 measured_on="cathepsin S (Homo sapiens, UniProt P25774)" experimental_result="> 10000 nM"
substance_smiles=Cc1ccc(COC(=O)NC2(c3ccnc(C#N)n3)CCCCC2)cc1 measured_on="cathepsin S (Homo sapiens, UniProt P25774)" experimental_result="> 10000 nM"
substance_smiles=CS(=O)(=O)c1ccc(-c2ccc(COC(=O)NC3(c4ccnc(C#N)n4)CCCC3)cc2)cc1 measured_on="cathepsin S (Homo sapiens, UniProt P25774)" experimental_result="> 10000 nM"
substance_smiles=Cn1ncc2ccc(-c3ccc(NC(=O)NC4(c5ccnc(C#N)n5)CCCCC4)cc3)cc21 measured_on="cathepsin S (Homo sapiens, UniProt P25774)" experimental_result="> 10000 nM"
substance_smiles=N#Cc1nccc(C2(NC(=O)Nc3ccc(-c4cccnc4)cc3)CCCCC2)n1 measured_on="cathepsin S (Homo sapiens, UniProt P25774)" experimental_result="9060 nM"
substance_smiles=CS(=O)(=O)c1ccc(-c2ccc(NC(=O)NC3(c4ccnc(C#N)n4)CCCCC3)cc2)cc1F measured_on="cathepsin S (Homo sapiens, UniProt P25774)" experimental_result="> 10000 nM"
substance_smiles=N#Cc1nccc(C2(NC(=O)Nc3cc(C(F)(F)F)ccc3C(F)(F)F)CCCCC2)n1 measured_on="cathepsin S (Homo sapiens, UniProt P25774)" experimental_result="> 10000 nM"
substance_smiles=N#Cc1nccc(C2(NC(=O)OCc3cccc(Br)c3)CCCC2)n1 measured_on="cathepsin S (Homo sapiens, UniProt P25774)" experimental_result="> 10000 nM"
substance_smiles=N#Cc1nccc(C2(NC(=O)Nc3ccc(-c4ccc(C(=O)NC5CC5)cc4)cc3)CCCCC2)n1 measured_on="cathepsin S (Homo sapiens, UniProt P25774)" experimental_result="7300 nM"
substance_smiles=N#Cc1nccc(C2(NC(=O)Nc3ccc(-c4ccc(CC(=O)O)cc4)cc3)CCCCC2)n1 measured_on="cathepsin S (Homo sapiens, UniProt P25774)" experimental_result="> 10000 nM"
substance_smiles=COc1ccc(-c2ccc(NC(=O)NC3(c4ccnc(C#N)n4)CCCCC3)cc2)cn1 measured_on="cathepsin S (Homo sapiens, UniProt P25774)" experimental_result="> 10000 nM"
substance_smiles=N#Cc1nccc(C2(NC(=O)Nc3ccc(N4CCNCC4)cc3)CCCCC2)n1 measured_on="cathepsin S (Homo sapiens, UniProt P25774)" experimental_result="> 10000 nM"
substance_smiles=N#Cc1nccc(C2(NC(=O)Nc3ccc(Cl)c(C(F)(F)F)c3)CCCCC2)n1 measured_on="cathepsin S (Homo sapiens, UniProt P25774)" experimental_result="> 10000 nM"
substance_smiles=N#Cc1nccc(C2(NC(=O)Nc3ccc(I)c(C(F)(F)F)c3)CCCCC2)n1 measured_on="cathepsin S (Homo sapiens, UniProt P25774)" experimental_result="> 10000 nM"
substance_smiles=N#Cc1nccc(C2(NC(=O)OCc3ccccc3Cl)CCCCC2)n1 measured_on="cathepsin S (Homo sapiens, UniProt P25774)" experimental_result="> 10000 nM"
substance_smiles=COCc1ccc(C(F)(F)F)cc1NC(=O)NC1(c2ccnc(C#N)n2)CCCCC1 measured_on="cathepsin S (Homo sapiens, UniProt P25774)" experimental_result="4750 nM"
substance_smiles=CCN1CCN(c2ccc(-c3ccc(NC(=O)NC4(c5ccnc(C#N)n5)CCCCC4)cc3)cc2)CC1 measured_on="cathepsin S (Homo sapiens, UniProt P25774)" experimental_result="> 10000 nM"
substance_smiles=N#Cc1nccc(C2(NC(=O)Nc3ccc(-c4ccc(CCC(=O)O)cc4)cc3)CCCCC2)n1 measured_on="cathepsin S (Homo sapiens, UniProt P25774)" experimental_result="3930 nM"
substance_smiles=N#Cc1nccc(C2(NC(=O)Nc3ccc(C(F)(F)F)cc3)CCCCC2)n1 measured_on="cathepsin S (Homo sapiens, UniProt P25774)" experimental_result="> 10000 nM"
substance_smiles=CC(C)N1CCN(c2ccc(-c3ccc(NC(=O)NC4(c5ccnc(C#N)n5)CCCCC4)cc3)cc2)CC1 measured_on="cathepsin S (Homo sapiens, UniProt P25774)" experimental_result="> 10000 nM"
substance_smiles=N#Cc1nccc(C2(NC(=O)NCc3cccc4ccccc34)CCCC2)n1 measured_on="cathepsin S (Homo sapiens, UniProt P25774)" experimental_result="> 10000 nM"
substance_smiles=N#Cc1nccc(C2(NC(=O)OCc3ccc(F)cc3)CCCCC2)n1 measured_on="cathepsin S (Homo sapiens, UniProt P25774)" experimental_result="7780 nM"
substance_smiles=N#Cc1nccc(C2(NC(=O)OCc3cccc4ccccc34)CCCCC2)n1 measured_on="cathepsin S (Homo sapiens, UniProt P25774)" experimental_result="> 10000 nM"

----------
- measured on: cathepsin B (Homo sapiens, UniProt P07858)
- assay procedure: Inhibitory activity assay against cathepsin B (enzyme assay)
- Assay type: biochemical
- measurement conditions: Z-Arg-Arg-AMC 40 μM, enzyme 1 nM, pH 6.0, 90 minutes
measured parameter: IC50

compound="N#Cc1nccc(C2(NC(=O)OCc3cccc(Br)c3)CCCC2)n1 [Example 3]" measured_parameter=IC50 experimental_result="> 10000 nM"
compound="N#Cc1nccc(C2(NC(=O)Nc3ccc(C(F)(F)F)cc3)CCCCC2)n1 [Example 90]" measured_parameter=IC50 experimental_result="> 10000 nM"
compound="Cc1cccc(NC(=O)NC2(c3ccnc(C#N)n3)CCCC2)c1C [Example 64]" measured_parameter=IC50 experimental_result="5890 nM"
compound="N#Cc1nccc(C2(NC(=O)Nc3ccc(-c4ccc(C(=O)NCCn5ccnc5)cc4)cc3)CCCCC2)n1 [Example 185]" measured_parameter=IC50 experimental_result="1760 nM"
compound="N#Cc1nccc(C2(NC(=O)Nc3ccc(-c4ccccc4F)cc3)CCCCC2)n1 [Example 124]" measured_parameter=IC50 experimental_result="> 10000 nM"
compound="N#Cc1nccc(C2(NC(=O)Nc3ccccc3O)CCCCC2)n1 [Example 102]" measured_parameter=IC50 experimental_result="> 10000 nM"

----------
- measured on: cathepsin L (Homo sapiens)
- Sequence (P07711 114-333, species assumed): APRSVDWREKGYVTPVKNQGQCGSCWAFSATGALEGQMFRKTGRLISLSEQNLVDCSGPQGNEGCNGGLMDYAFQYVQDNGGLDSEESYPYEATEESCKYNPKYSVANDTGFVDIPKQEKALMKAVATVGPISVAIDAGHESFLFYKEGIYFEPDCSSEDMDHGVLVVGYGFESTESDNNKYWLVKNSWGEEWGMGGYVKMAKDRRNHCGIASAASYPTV
- assay procedure: Inhibitory activity assay against cathepsin L (enzyme assay)
- Assay type: biochemical
- measurement conditions: Z-Phe-Arg-AMC 2 μM, enzyme 3 nM, pH 5.5, 30 minutes
measured parameter: IC50

substance_smiles=N#Cc1nccc(C2(NC(=O)Nc3ccccc3C(F)(F)F)CCCCC2)n1 measured_on="cathepsin L (Homo sapiens)" measured_parameter=IC50 experimental_result="> 10000 nM"
substance_smiles=CS(=O)(=O)c1ccc(-c2ccc(NC(=O)NC3(c4ccnc(C#N)n4)CCCCC3)cc2C(F)(F)F)cc1C(F)(F)F measured_on="cathepsin L (Homo sapiens)" measured_parameter=IC50 experimental_result="> 10000 nM"
substance_smiles=COCCNC(=O)c1ccc(-c2ccc(NC(=O)NC3(c4ccnc(C#N)n4)CCCCC3)cc2)cc1 measured_on="cathepsin L (Homo sapiens)" measured_parameter=IC50 experimental_result="> 10000 nM"
substance_smiles=CCN1CCN(c2ccc(NC(=O)NC3(c4ccnc(C#N)n4)CCCCC3)cc2)CC1 measured_on="cathepsin L (Homo sapiens)" measured_parameter=IC50 experimental_result="> 10000 nM"
substance_smiles=N#Cc1nccc(C2(NC(=O)Nc3ccc(-c4ccccc4C(F)(F)F)cc3)CCCCC2)n1 measured_on="cathepsin L (Homo sapiens)" measured_parameter=IC50 experimental_result="> 10000 nM"
substance_smiles=N#Cc1nccc(C2(NC(=O)OCc3ccc(-c4ccc(F)nc4)cc3)CCCC2)n1 measured_on="cathepsin L (Homo sapiens)" measured_parameter=IC50 experimental_result="> 10000 nM"
substance_smiles=N#Cc1nccc(C2(NC(=O)OCc3ccccc3F)CCCCC2)n1 measured_on="cathepsin L (Homo sapiens)" measured_parameter=IC50 experimental_result="1740 nM"
substance_smiles=Cn1cc(-c2ccc(NC(=O)NC3(c4ccnc(C#N)n4)CCCCC3)cc2)cn1 measured_on="cathepsin L (Homo sapiens)" measured_parameter=IC50 experimental_result="> 10000 nM"
substance_smiles=N#Cc1nccc(C2(NC(=O)NCc3ccc4c(c3)OCO4)CCCC2)n1 measured_on="cathepsin L (Homo sapiens)" measured_parameter=IC50 experimental_result="> 10000 nM"
substance_smiles=N#Cc1nccc(C2(NC(=O)Nc3ccc(C#Cc4ccc(CO)cc4)cc3)CCCCC2)n1 measured_on="cathepsin L (Homo sapiens)" measured_parameter=IC50 experimental_result="> 10000 nM"
substance_smiles=CS(=O)(=O)Nc1ccc(-c2ccc(NC(=O)NC3(c4ccnc(C#N)n4)CCCCC3)cc2C(F)(F)F)cc1 measured_on="cathepsin L (Homo sapiens)" measured_parameter=IC50 experimental_result="> 10000 nM"
substance_smiles=Cc1ccc(C(F)(F)F)cc1NC(=O)NC1(c2ccnc(C#N)n2)CCCCC1 measured_on="cathepsin L (Homo sapiens)" measured_parameter=IC50 experimental_result="1100 nM"
substance_smiles=CS(=O)(=O)c1ccc(-c2ccc(NC(=O)NC3(c4ccnc(C#N)n4)CCCCC3)cc2)cc1F measured_on="cathepsin L (Homo sapiens)" measured_parameter=IC50 experimental_result="> 10000 nM"
substance_smiles=CN(C)CCOc1ccc(-c2ccc(NC(=O)NC3(c4ccnc(C#N)n4)CCCCC3)cc2)cc1 measured_on="cathepsin L (Homo sapiens)" measured_parameter=IC50 experimental_result="6720 nM"
substance_smiles=N#Cc1nccc(C2(NC(=O)Nc3ccc(-c4cccnc4)cc3)CCCCC2)n1 measured_on="cathepsin L (Homo sapiens)" measured_parameter=IC50 experimental_result="> 10000 nM"
substance_smiles=N#Cc1nccc(C2(NC(=O)Nc3ccc(-c4ccc(C(=O)NCCn5nccn5)cc4)c(F)c3)CCCCC2)n1 measured_on="cathepsin L (Homo sapiens)" measured_parameter=IC50 experimental_result="> 10000 nM"
substance_smiles=CC(C)N1CCN(c2ccc(-c3ccc(CNC(=O)NC4(c5ccnc(C#N)n5)CCCCC4)cc3)cc2)CC1 measured_on="cathepsin L (Homo sapiens)" measured_parameter=IC50 experimental_result="> 10000 nM"
substance_smiles=N#Cc1nccc(C2(NC(=O)OCc3cccc(-c4ccc(F)nc4)c3)CCCC2)n1 measured_on="cathepsin L (Homo sapiens)" measured_parameter=IC50 experimental_result="> 10000 nM"
substance_smiles=N#Cc1nccc(C2(NC(=O)NCc3ccccc3C(F)(F)F)CCCCC2)n1 measured_on="cathepsin L (Homo sapiens)" measured_parameter=IC50 experimental_result="4770 nM"
substance_smiles=CC(C)N1CCN(c2ccc(-c3ccc(NC(=O)NC4(c5ccnc(C#N)n5)CCCCC4)cc3)cc2)CC1 measured_on="cathepsin L (Homo sapiens)" measured_parameter=IC50 experimental_result="4280 nM"
substance_smiles=N#Cc1nccc(C2(NC(=O)OCc3ccccc3Br)CCCCC2)n1 measured_on="cathepsin L (Homo sapiens)" measured_parameter=IC50 experimental_result="1060 nM"
substance_smiles=N#Cc1nccc(C2(NC(=O)Nc3ccc(-c4ccccc4C(F)(F)F)c(C(F)(F)F)c3)CCCCC2)n1 measured_on="cathepsin L (Homo sapiens)" measured_parameter=IC50 experimental_result="> 10000 nM"
substance_smiles=COCc1ccc(C(F)(F)F)cc1NC(=O)NC1(c2ccnc(C#N)n2)CCCCC1 measured_on="cathepsin L (Homo sapiens)" measured_parameter=IC50 experimental_result="1470 nM"
substance_smiles=N#Cc1nccc(C2(NC(=O)Nc3ccc(Br)cc3)CCCCC2)n1 measured_on="cathepsin L (Homo sapiens)" measured_parameter=IC50 experimental_result="> 10000 nM"
substance_smiles=CS(=O)(=O)c1ccc(-c2ccc(NC(=O)NC3(c4ccnc(C#N)n4)CCCCC3)cc2F)cc1 measured_on="cathepsin L (Homo sapiens)" measured_parameter=IC50 experimental_result="> 10000 nM"
substance_smiles=N#Cc1nccc(C2(NC(=O)Nc3ccc(-c4ccc(C(F)(F)F)cc4)cc3)CCCCC2)n1 measured_on="cathepsin L (Homo sapiens)" measured_parameter=IC50 experimental_result="> 10000 nM"
